Target: Glutamate receptor 2 (Homo sapiens, UniProt P42262)
Sequence (P42262 whole entry): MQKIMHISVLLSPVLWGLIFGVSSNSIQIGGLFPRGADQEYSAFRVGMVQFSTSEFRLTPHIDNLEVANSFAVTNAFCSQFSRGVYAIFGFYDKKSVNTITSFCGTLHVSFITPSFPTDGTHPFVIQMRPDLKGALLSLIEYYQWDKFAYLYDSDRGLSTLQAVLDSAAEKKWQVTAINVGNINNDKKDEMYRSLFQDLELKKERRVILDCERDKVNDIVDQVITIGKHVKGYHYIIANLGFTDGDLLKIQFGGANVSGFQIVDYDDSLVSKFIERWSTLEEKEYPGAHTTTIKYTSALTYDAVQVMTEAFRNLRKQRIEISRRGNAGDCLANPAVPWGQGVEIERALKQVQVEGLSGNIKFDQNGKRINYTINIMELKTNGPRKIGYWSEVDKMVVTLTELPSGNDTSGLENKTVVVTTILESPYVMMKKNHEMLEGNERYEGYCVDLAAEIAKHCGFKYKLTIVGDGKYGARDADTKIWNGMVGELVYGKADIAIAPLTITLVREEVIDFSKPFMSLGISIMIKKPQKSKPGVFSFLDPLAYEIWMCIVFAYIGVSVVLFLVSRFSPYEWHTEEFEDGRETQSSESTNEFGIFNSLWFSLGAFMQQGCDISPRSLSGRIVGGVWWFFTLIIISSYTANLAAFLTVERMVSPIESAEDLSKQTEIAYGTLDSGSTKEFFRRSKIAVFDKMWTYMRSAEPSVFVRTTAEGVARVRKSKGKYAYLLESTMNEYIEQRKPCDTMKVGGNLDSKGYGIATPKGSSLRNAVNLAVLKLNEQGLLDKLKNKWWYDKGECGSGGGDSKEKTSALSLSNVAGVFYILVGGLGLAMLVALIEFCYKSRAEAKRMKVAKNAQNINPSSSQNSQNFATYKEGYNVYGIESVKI
Experiment: Ability to displace binding of [3H]AMPA to recombinant human Ionotropic glutamate receptor AMPA 2
parameter: pKi
Note: pKi values are expressed as the negative base-10 logarithm of concentration in M.

Q: Report pKi for O=C(O)c1cn(C[C@H]2CC[C@H]3CN[C@H](C(=O)O)C[C@H]3C2)cn1 please.
Ans: 3.93

----------
Target: UniProt Q13002
Assay: Ability to displace binding of [3H]KA to recombinant human KA receptor Ionotropic glutamate receptor ionotropic kainate 2
parameter: Ki

{"compound": "O=C(O)c1cn(C[C@H]2CC[C@H]3CN[C@H](C(=O)O)C[C@H]3C2)cn1", "reportedResult": "> 1000 µM"}

Then there is this compound:
Q: State the recorded Ki for this entry: O=C(O)[C@@H]1C[C@H]2C[C@@H](CCc3nn[nH]n3)CC[C@H]2CN1 [TEZAMPANEL ANHYDROUS]
Ans: > 100 µM

----------
Molecular target: Glutamate receptor 4 (Homo sapiens)
Sequence (P48058 whole entry): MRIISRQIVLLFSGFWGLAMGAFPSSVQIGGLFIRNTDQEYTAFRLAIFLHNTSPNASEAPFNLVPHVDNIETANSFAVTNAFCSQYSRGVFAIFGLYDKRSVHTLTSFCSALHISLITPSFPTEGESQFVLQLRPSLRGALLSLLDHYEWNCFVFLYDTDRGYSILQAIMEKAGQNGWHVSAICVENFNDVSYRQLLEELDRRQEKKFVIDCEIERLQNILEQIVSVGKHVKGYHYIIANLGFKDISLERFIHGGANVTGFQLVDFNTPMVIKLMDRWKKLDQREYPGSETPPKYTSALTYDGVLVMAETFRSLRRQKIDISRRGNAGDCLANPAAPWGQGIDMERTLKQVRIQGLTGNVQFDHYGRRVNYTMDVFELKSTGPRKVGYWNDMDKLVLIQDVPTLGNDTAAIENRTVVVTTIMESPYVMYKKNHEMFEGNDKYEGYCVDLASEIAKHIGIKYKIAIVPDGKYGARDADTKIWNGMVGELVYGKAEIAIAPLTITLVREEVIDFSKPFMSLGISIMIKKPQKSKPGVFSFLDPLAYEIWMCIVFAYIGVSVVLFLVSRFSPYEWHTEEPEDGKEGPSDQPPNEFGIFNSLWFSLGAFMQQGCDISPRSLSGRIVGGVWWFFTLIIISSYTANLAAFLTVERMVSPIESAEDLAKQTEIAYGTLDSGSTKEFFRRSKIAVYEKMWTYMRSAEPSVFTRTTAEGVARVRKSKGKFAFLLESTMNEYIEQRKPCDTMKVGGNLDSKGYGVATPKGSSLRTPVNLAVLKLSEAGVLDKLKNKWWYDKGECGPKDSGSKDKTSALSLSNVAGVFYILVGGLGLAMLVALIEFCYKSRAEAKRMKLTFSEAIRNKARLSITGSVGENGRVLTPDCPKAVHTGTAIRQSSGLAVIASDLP
Experiment: Ability to displace binding of [3H]AMPA to recombinant human Ionotropic glutamate receptor AMPA 4
Below is a list of entries, each paired with its recorded pKi value.
Note on units: pKi is unitless, being -log10 of a concentration expressed in mol/L.

{"compound": "O=C(O)[C@@H]1C[C@H]2C[C@@H](CCc3nn[nH]n3)CC[C@H]2CN1 [TEZAMPANEL ANHYDROUS]", "parameter": "pKi", "reportedResult": 4.30}

Q: What value of pKi has been reported for the following compound? O=C(O)c1cn(C[C@H]2CC[C@H]3CN[C@H](C(=O)O)C[C@H]3C2)cn1
Ans: 3.58

----------
Target: Glutamate receptor ionotropic, kainate 1 (Homo sapiens)
Assay: Ability to displace binding of [3H]KA to recombinant human Ionotropic glutamate receptor ionotropic kainate 1
parameter: Ki (nM)
Write it as a number; the unit nM goes unstated.

{"compound": "O=C(O)[C@@H]1C[C@H]2C[C@@H](CCc3nn[nH]n3)CC[C@H]2CN1 [TEZAMPANEL ANHYDROUS]", "reportedResult": 4200}

Now examine the next entry.
Q: Given the compound O=C(O)c1cn(C[C@H]2CC[C@H]3CN[C@H](C(=O)O)C[C@H]3C2)cn1 , what is its reported Ki?
Ans: 156

----------
Target: Glutamate receptor ionotropic, kainate 2 (Homo sapiens)
Sequence (Q13002 whole entry): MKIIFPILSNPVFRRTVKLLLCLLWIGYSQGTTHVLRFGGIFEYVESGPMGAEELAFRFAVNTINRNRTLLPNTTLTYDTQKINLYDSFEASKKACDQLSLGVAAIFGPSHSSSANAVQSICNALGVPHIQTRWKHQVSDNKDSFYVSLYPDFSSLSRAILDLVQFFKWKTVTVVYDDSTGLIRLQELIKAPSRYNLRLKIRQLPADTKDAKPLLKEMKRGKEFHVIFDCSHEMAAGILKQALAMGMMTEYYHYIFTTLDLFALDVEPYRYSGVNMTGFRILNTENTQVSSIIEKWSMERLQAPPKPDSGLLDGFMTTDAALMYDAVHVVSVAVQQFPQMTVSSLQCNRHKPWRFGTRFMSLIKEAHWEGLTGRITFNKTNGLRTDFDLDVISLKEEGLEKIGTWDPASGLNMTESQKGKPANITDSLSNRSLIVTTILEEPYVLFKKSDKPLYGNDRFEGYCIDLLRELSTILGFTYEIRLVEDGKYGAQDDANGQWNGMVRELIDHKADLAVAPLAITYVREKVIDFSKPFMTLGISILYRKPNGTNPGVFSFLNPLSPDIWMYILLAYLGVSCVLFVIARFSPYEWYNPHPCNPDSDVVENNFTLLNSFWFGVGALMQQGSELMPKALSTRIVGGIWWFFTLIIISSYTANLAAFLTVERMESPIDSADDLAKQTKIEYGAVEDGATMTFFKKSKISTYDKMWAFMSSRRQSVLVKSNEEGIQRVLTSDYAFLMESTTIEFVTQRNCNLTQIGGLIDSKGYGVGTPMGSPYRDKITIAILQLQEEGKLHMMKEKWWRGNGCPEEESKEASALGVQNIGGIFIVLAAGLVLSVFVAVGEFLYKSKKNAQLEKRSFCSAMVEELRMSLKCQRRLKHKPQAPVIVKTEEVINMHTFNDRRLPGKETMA
Assay: Ability to displace binding of [3H]KA to recombinant human KA receptor Ionotropic glutamate receptor ionotropic kainate 2 expressed in EK 293 cell membranes
parameter: pKi
pKi (log units): -log10 of the concentration in mol/L.

Q: Recorded pKi of O=C(O)c1cn(C[C@H]2CC[C@H]3CN[C@H](C(=O)O)C[C@H]3C2)cn1 , please.
Ans: 3.63

----------
Target: Glutamate receptor 3 (Homo sapiens, UniProt P42263)
Sequence (P42263 whole entry): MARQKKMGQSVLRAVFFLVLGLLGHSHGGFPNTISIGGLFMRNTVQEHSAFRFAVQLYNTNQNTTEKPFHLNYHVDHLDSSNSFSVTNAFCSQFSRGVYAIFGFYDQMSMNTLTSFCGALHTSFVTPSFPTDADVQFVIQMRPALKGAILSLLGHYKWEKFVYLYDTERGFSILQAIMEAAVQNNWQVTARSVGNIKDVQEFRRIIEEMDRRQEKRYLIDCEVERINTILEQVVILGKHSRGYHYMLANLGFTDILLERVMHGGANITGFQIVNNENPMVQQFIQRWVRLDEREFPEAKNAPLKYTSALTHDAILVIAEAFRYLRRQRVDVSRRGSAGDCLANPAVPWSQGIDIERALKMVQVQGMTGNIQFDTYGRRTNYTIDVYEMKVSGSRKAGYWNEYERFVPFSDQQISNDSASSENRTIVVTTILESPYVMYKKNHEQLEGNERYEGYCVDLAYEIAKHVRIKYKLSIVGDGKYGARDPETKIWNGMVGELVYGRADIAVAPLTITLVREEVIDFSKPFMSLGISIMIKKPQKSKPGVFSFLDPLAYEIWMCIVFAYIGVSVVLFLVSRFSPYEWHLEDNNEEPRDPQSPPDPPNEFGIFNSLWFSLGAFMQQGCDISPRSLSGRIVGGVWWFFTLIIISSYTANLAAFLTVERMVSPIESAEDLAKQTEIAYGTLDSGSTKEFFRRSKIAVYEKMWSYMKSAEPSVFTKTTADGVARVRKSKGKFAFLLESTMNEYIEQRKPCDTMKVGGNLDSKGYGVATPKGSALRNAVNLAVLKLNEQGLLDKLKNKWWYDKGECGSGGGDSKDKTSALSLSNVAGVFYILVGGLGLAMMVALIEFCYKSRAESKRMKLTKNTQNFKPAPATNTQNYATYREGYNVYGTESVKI
Assay: Ability to displace binding of [3H]AMPA to recombinant human Ionotropic glutamate receptor AMPA 3
parameter: Ki (µM)
Please state the figure in µM; there is no need to write the unit.

{"compound": "O=C(O)c1cn(C[C@H]2CC[C@H]3CN[C@H](C(=O)O)C[C@H]3C2)cn1", "outputUnit": "µM", "reportedResult": 247}

// moving on: another record for Ki
Q: Form: Entry = O=C(O)[C@@H]1C[C@H]2C[C@@H](CCc3nn[nH]n3)CC[C@H]2CN1 [TEZAMPANEL ANHYDROUS] | System = Glutamate receptor 3 (Homo sapiens, UniProt P42263) | Ki = ____
Ans: 32

----------
Biological target: Glutamate receptor 1 (Homo sapiens, UniProt P42261)
Sequence (P42261 whole entry): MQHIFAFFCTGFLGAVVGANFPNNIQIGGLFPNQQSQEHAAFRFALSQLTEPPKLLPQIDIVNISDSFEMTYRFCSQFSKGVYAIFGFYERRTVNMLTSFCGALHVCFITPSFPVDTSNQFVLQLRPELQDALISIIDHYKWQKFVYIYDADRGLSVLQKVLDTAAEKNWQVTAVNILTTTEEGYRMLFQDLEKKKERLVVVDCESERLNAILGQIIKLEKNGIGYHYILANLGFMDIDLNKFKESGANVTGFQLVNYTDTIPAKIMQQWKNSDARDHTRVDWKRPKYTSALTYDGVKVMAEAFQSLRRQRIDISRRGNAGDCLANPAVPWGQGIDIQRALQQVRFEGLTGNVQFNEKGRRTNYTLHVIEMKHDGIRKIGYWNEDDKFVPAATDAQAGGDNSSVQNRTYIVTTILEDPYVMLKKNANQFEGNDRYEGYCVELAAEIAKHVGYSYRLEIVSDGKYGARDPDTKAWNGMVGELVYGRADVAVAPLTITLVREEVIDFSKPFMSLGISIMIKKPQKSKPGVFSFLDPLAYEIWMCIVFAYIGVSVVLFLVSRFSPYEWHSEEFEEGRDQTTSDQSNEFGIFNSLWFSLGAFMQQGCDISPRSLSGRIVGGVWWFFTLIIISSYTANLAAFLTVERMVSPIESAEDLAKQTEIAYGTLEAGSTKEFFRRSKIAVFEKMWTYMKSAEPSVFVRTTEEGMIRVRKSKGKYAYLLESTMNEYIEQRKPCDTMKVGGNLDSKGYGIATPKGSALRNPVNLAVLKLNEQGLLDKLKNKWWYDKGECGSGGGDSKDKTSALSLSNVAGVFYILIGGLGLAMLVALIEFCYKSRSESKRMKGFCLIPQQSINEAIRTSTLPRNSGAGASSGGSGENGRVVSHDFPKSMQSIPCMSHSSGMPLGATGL
Experiment: Ability to displace binding of [3H]AMPA to recombinant human Ionotropic glutamate receptor AMPA 1
Each entry below carries its recorded pKi.
Lab note: report pKi as minus log10 of the concentration in molar units, number only.

Worked cases, answers included:
{"compound": "NS(=O)(=O)c1cccc2c1c([N+](=O)[O-])cc1nc(O)c(O)nc12", "pKi": 5.80}
{"compound": "O=C(O)c1cn(C[C@H]2CC[C@H]3CN[C@H](C(=O)O)C[C@H]3C2)cn1", "pKi": 3.87}

Q: Request - read-out pKi | tested on Glutamate receptor 1 (Homo sapiens, UniProt P42261) | compound O=C(O)[C@@H]1C[C@H]2C[C@@H](CCc3nn[nH]n3)CC[C@H]2CN1 [TEZAMPANEL ANHYDROUS]
Ans: 5.04

The reported numbers originate from ChEMBL document CHEMBL1136004.
